biological target: CYP2C9 (Homo sapiens, UniProt P11712); test: Residual activity of cytochrome P450 2C9 at 1 uM
Sequence (P11712 whole entry): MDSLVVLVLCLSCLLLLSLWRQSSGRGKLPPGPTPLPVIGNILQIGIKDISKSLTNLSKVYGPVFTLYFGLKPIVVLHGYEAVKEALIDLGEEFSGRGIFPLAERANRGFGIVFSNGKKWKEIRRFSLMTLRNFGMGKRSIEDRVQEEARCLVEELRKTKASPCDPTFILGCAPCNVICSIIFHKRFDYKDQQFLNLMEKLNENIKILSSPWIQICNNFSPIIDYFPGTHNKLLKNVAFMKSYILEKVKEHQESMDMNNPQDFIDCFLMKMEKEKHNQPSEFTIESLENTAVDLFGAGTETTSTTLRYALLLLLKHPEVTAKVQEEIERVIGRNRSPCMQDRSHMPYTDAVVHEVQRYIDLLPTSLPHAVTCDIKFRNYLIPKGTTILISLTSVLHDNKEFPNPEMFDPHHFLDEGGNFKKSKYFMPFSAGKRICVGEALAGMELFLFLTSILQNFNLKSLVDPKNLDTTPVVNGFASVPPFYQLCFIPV
Attribute measured: residual activity at 1 µM (%)
// note: answer is a bare numeric in %

Solved cases (2 shown):
- Molecule: "Cc1cc(SC2=C(O)OC(CCc3ccc(O)cc3)(C(C)C)CC2=O)c(C(C)(C)C)cc1OS(=O)(=O)c1ccc(C#N)cc1 (stereo not drawn)"
  residual activity at 1 µM [%]: 83.5
- Molecule: "Cc1cc(SC2=C(O)O[C@](CCc3ccc(O)cc3)(C(C)C)CC2=O)c(C(C)(C)C)cc1N (stereo in doubt; 1S)"
  residual activity at 1 µM [%]: 93.2

-- ask Which value of residual activity at 1 µM has been reported for "CC(C)(C)NC(=O)[C@@H]1CN(Cc2cccnc2)CCN1C[C@@H](O)C[C@@H](Cc1ccccc1)C(=O)N[C@H]1c2ccccc2C[C@H]1O" in the records?
-- reply 93
